Tested Target: T1, recombinant human EGFR extracellular domain with 6xHis (human, UniProt P00533 25-645)
T1 construct: In-house produced; also called 6xHis EGFR ECD; soluble human EGFR ECD; not shown: 6xHis tag
Assay Method Text: SPR, reference cycle of the run with mix N=6-1
Procedure: SPR analysis was performed on a Biacore 3000 machine containing four flow cells. A CM5 Biacore chip was conjugated with 10,000 Resonance units (Ru) polyclonal anti-His antibody to flow cells 1-4 according to the manufacturer's instructions. […] Immediately after antigen injection the maximal binding of the Anti-EGFR mAb without competition was established in each flow cell during a reference run. […]
Could you please mark T for values of Rumax reference cycle below 100 Ru and F for values at or above it?

Here's an entry: antibody 1261 (antibody, human IgG1, kappa, V domains shown, Chimeric IgG1 kappa) VH: EVQLVESGGGLVKPGGSLKLSCAVSGFTFSSYVMSWVRQTPEKRLEWVATITSGGRNIYYLDSVKGRFTISRDNAKNTLYLQMSSLRSEDTAMYYCARHEDYRYDGYYAMDYWGQGTSVTVSS VL: QIVLTQSPAIMSASPGEKVTITCSASSSVSYMHWFQQKPGTSPKLWIYSTSNLASGVPARFSGSGSGTSYSLTISRMEAEDAATYYCQQRSSYPYTFGGGTKLELKR . Is its Rumax reference cycle below 100 Ru?
F

Problem: For the binder antibody 1347 (antibody, human IgG1, kappa, V domains shown, Chimeric IgG1 kappa) VH: QVQLKESGPGLVAPSQSLSITCTVSGFSLTGHGVNWVRQPPGKGLEWLGMIWGDGSTDYNSTLKSRLSISKDNSKSQVFLKMNSLQTDDTARYYCARGYGYLYYFDYWGQGTTLTVSS VL: ENVLTQSPAIMSASPGEKVTMTCRASSSVSSSYLHWYQQKSGASPKLWIYSTSNLASGVPARFSGSGSGTSYSLTVNSVETEDAATYYCHQYSGFPFTFGSGTKLELKR , is Rumax reference cycle under 100 Ru?
F

Determine whether this binder shows Rumax reference cycle lower than 100 Ru (ties excluded): antibody 1030 (antibody, human IgG1, kappa, V domains shown, Chimeric IgG1 kappa) VH: EVQLVESGGGLVKPGGSLKLSCAASGFTFSSYALSWVRQTPERRLEWVASISGVGSTYFPDSVKGRFTMSRDNARNILYLQMSSLRSEDTAMYYCARGSDGYFYAMDYWGQGTSVTVSS VL: DIVLTQSPASLAVSLGQRATISCRASKSVSTSGYSFMHWYQLKPGQPPKLLIYLASNLESGVPARFSGSGSGTDFTLNIHPVEEEDAATYYCQHSREFPLTFGGGTKLEIKR
T

Take the binder antibody 992 (antibody, human IgG1, kappa, V domains shown, Chimeric mouse/human IgG1 kappa; the VL entry includes the human kappa constant region) VH: EVQLQQPGSELVRPGASVKLSCKASGYTFTSYWMHWVKQRPGQGLEWIGNIYPGSRSTNYDEKFKSKATLTVDTSSSTAYMQLSSLTSEDSAVYYCTRNGDYYVSSGDAMDYWGQGTSVTVSS VL: DIQMTQTTSSLSASLGDRVTISCRTSQDIGNYLNWYQQKPDGTVKLLIYYTSRLHSGVPSRFSGSGSGTDFSLTINNVEQEDVATYFCQHYNTVPPTFGGGTKLEIKR and say whether its Rumax reference cycle is less than 100 Ru.
T

Is Rumax reference cycle of antibody 1024 (antibody, human IgG1, kappa, V domains shown, Chimeric IgG1 kappa) VH: QVQLQQPGAELVEPGGSVKLSCKASGYTFTSHWMHWVKQRPGQGLEWIGEINPSSGRNNYNEKFKSKATLTVDKSSSTAYMQFSSLTSEDSAVYYCVRYYGYDEAMDYWGQGTSVTVSS VL: DIVMTQAAFSNPVTLGTSASISCRSSKSLLHSNGITYLYWYLQKPGQSPQLLIYQMSNLASGVPDRFSSSGSGTDFTLRISRVEAEDVGVYYCAQNLELPYTFGGGTKLEIKR strictly below 100 Ru?
F
